tested on: 874868-142-R-J2-PDC complex spheroids, growth % test/control; assay: Anticancer human tumor 874868-142-R-J2-PDC patient-derived head and neck squamous carcinoma cell line growth inhibition [CLK]; details: second compound 1 µM; first compound 0.316 µM; active = viability on the fitted dose curve at most 10% of control; inactive = the rest;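 note: spheroids exposed to the compounds for 7 days; 100% = DMSO vehicle control viability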
The reply should be one of these categories: 1 = active, -1 = inactive

| Compound | Classification |
| --- | --- |
| CCCS(=O)(=O)Nc1ccc(F)c(C(=O)c2c[nH]c3ncc(-c4ccc(Cl)cc4)cc23)c1F + CN1CCN(c2cc(C(=O)Nc3cc4cc(-c5cnn(C)c5)ccc4cn3)ccn2)CC1 | 1 |
| CCCS(=O)(=O)Nc1ccc(F)c(C(=O)c2c[nH]c3ncc(-c4ccc(Cl)cc4)cc23)c1F + CNC(=O)c1ccc(Nc2nc(OC3CCCC3)c3c(-c4ccc5nc(C)oc5c4)c[nH]c3n2)c(OC)c1 | -1 |

Below: the item to evaluate.
Just curious, what result did C#Cc1c(F)ccc2cc(O)cc(-c3ncc4c(N5CC6CCC(C5)N6)nc(OCC56CCCN5CC(F)C6)nc4c3F)c12 (stereo not drawn) + CN1CCN(c2cc(C(=O)Nc3cc4cc(-c5cnn(C)c5)ccc4cn3)ccn2)CC1 get here?
1

Entry source: PubChem BioAssay AID2060601
